Assay: A CellTox Green Cytotoxicity Assay to monitor cytotoxicity in HepG2 cells - 40 hour (AID 1224879); note: % is set by controls: 0 for no effect and ±100 for the full control effect; nearly all actives have a fitted effect of over 40% in size
Settings: CellTox Green fluorescence; series mostly up to 76.8 µM
Text: National Center for Advancing Translational Sciences [NCATS] NIH Chemical Genomics Center [NCGC] U.S. Environmental Protection Agency [EPA] National Institutes of Environmental Health Sciences [NIEHS] National Toxicology Program [NTP] Cell-based models are critical for drug discovery. […] Viable cells produce no appreciable increases in fluorescence. Therefore, the fluorescence signal produced by the binding interaction with dead cell DNA is proportional to cytotoxicity. […]
Results filed as inconclusive are left out. Activity calls are given as the source filed them. Calls come from the whole dose curve; as a rule, active = well fitted activation curve with a large enough effect in the repeat runs; inconclusive = weak or mixed curves; inactive = flat fitted curve, though single readings scatter.

>  <Compound>
C=C[Si](C)(C)Cl

>  <cytotoxicity increase>
-18.2% [at 6.97 µM] (inactive)

$$$$
>  <Compound>
CCCCCCCCCCCCS(=O)(=O)Cl

>  <cytotoxicity increase>
-19.9% [at 15.8 µM] (inactive)

$$$$
>  <Compound>
COc1cc(C(C)C)ccc1C

>  <cytotoxicity increase>
-18.2% [at 15.8 µM] (inactive)

$$$$
>  <Compound>
C=CC(=O)OCCOC1C2CCC1C1CC=CC12 (centres undefined)

>  <cytotoxicity increase>
-11.6% [at 15.8 µM] (inactive)

$$$$

----------
assay: qHTS assay to identify small molecule agonists of the peroxisome proliferator-activated receptor delta (PPARd) signaling pathway - cell viability counter screen (AID 743211); settings: PPARd-bla HEK293H viability, CellTiter-Glo luminescence, 17 h; series mostly up to 62.6 µM; note: nearly all actives have a fitted effect of over 55% in size; note: potency is the fitted concentration of half-maximal effect
Records with an inconclusive call do not appear. Activity calls are given as the source filed them. The call rests on the fitted dose curve; in most records, active means well fitted cell-killing curve with a large enough effect in the repeat runs; inconclusive means weak or mixed curves; inactive means no such curve, though single readings can be large or run the other way.

>  <Compound>
CCCCCCCC/C=C\CCCCCCCC(=O)N(CCO)CCO

>  <Potency>
43.5 µM (active)

$$$$
>  <Compound>
O=C(N[C@H](CO)[C@H](O)c1ccc([N+](=O)[O-])cc1)C(Cl)Cl

>  <Potency>
inactive

$$$$
>  <Compound>
N#Cc1nc(Cl)c(Cl)c(Cl)c1Cl

>  <Potency>
7.76 µM (active)

$$$$
>  <Compound>
C=CCc1cc(S(=O)(=O)c2ccc(O)c(CC=C)c2)ccc1O

>  <Potency>
43.6 µM (active)

$$$$
>  <Compound>
Cc1cc(F)ccc1-c1cc(N2CC[C@@H](O)[C@H]2CO)ncc1N(C)C(=O)C(C)(C)c1cc(C(F)(F)F)cc(C(F)(F)F)c1

>  <Potency>
13.6 µM (active)

$$$$
>  <Compound>
CCCCCCCCCCCCN1CCCC1=O

>  <Potency>
54.9 µM (active)

$$$$
>  <Compound>
CN1CCN(c2ccccc2/C=C2\SCCN(c3ccc(Cl)c(Cl)c3)C2=O)CC1

>  <Potency>
24.5 µM (active)

$$$$
>  <Compound>
COc1cc(/C=C/C(=O)CC(=O)/C=C/c2ccc(O)c(OC)c2)ccc1O

>  <Potency>
34.9 µM (active)

$$$$
>  <Compound>
NCc1cccc(C2CCN(C(=O)c3ccc(C#Cc4ccccc4F)o3)CC2)c1

>  <Potency>
21.9 µM (active)

$$$$
>  <Compound>
CC(=O)[C@]1(O)Cc2c(O)c3c(c(O)c2[C@@H](O[C@H]2C[C@H](N)[C@H](O)[C@H](C)O2)C1)C(=O)c1ccccc1C3=O

>  <Potency>
inactive

$$$$
>  <Compound>
CN(C)CCOc1ccc(/C(=C(/CCCl)c2ccccc2)c2ccccc2)cc1

>  <Potency>
14.5 µM (active)

$$$$
>  <Compound>
CC(Cc1ccc(O)c(O)c1)C(C)Cc1ccc(O)c(O)c1 (stereo unspecified)

>  <Potency>
inactive

$$$$
>  <Compound>
CN1CCN(CCCN2c3ccccc3Sc3ccc(C(F)(F)F)cc32)CC1

>  <Potency>
18.8 µM (active)

$$$$
>  <Compound>
CCCCCCCCCCCCCCCCCCNC(=O)OC1CCN(C(=O)OC[C@H](COC(=O)N(Cc2cccc[n+]2CC)C(=O)c2ccccc2OC)OC)CC1

>  <Potency>
10.6 µM (active)

$$$$
>  <Compound>
CCCCCCCCOC(=O)c1cc(O)c(O)c(O)c1

>  <Potency>
43.6 µM (active)

$$$$
>  <Compound>
O=C(CCN1CCC(c2ccccc2)C1)c1ccc2c(c1)OCCO2 (stereo unspecified)

>  <Potency>
inactive

$$$$
>  <Compound>
SC1CCCCC1

>  <Potency>
inactive

$$$$
>  <Compound>
O=C1CCCCCCCCCCCCCC1

>  <Potency>
inactive

$$$$
>  <Compound>
CN[C@H]1CC[C@@H](c2ccc(Cl)c(Cl)c2)c2ccc(S(N)(=O)=O)cc21

>  <Potency>
6.92 µM (active)

$$$$
>  <Compound>
CN(C[C@@H](CC[N+]12CCC(C3CCCCC3)(CC1)CC2)c1ccc(Cl)c(Cl)c1)C(=O)c1cc(C(F)(F)F)cc(C(F)(F)F)c1

>  <Potency>
17.4 µM (active)

$$$$
>  <Compound>
CCC(C)(C)c1ccc(CC(C)CN2C[C@@H](C)O[C@@H](C)C2)cc1 (stereo partly specified)

>  <Potency>
26.6 µM (active)

$$$$
